Measured Activity values are reported for all entries that follow.
target: Human immunodeficiency virus type 1 integrase (Human immunodeficiency virus 1); assay: Binding affinity to HIV-1 integrase measured after overnight incubation by chemiluminescence analysis relative to IN 174-188; set-up: concentration or dose not given beside the values
Peptide text beside a SMILES is read from it.
measurement_type: Activity (%)

| molecule | result_unit | reading |
| --- | --- | --- |
| CC[C@H](C)[C@H](NC(=O)[C@H](Cc1ccccc1)NC(=O)[C@@H](NC(=O)[C@H](C)NC(=O)[C@H](CCSC)NC(=O)[C@H](CCC(N)=O)NC(=O)[C@@H](NC(=O)[C@H](C)N)C(C)C)C(C)C)C(=O)N[C@@H](Cc1cnc[nH]1)C(=O)N[C@@H](CC(N)=O)C(=O)N[C@@H](Cc1ccccc1)C(=O)N[C@@H](CCCCN)C(=O)N[C@@H](CCCNC(=N)N)C(=O)N[C@@H](CCCCN)C(=O)O (H-AVQMAVFIHNFKRK-OH) | % | 99 |
| CC[C@H](C)[C@H](NC(=O)[C@H](C)NC(=O)[C@@H](NC(=O)[C@H](C)NC(=O)[C@H](CCSC)NC(=O)[C@H](CCC(N)=O)NC(=O)[C@@H](NC(=O)[C@H](C)NC(=O)[C@@H](N)[C@@H](C)O)C(C)C)C(C)C)C(=O)N[C@@H](Cc1cnc[nH]1)C(=O)N[C@@H](CC(N)=O)C(=O)N[C@@H](Cc1ccccc1)C(=O)N[C@@H](CCCCN)C(=O)N[C@@H](CCCNC(=N)N)C(=O)N[C@@H](CCCCN)C(=O)O (H-TAVQMAVAIHNFKRK-OH) | % | 104 |
| CC[C@H](C)[C@H](NC(=O)[C@H](Cc1ccccc1)NC(=O)[C@@H](NC(=O)[C@H](C)NC(=O)[C@H](CCSC)NC(=O)[C@H](CCC(N)=O)NC(=O)[C@@H](NC(=O)[C@H](C)NC(=O)[C@@H](N)[C@@H](C)O)C(C)C)C(C)C)C(=O)N[C@@H](Cc1cnc[nH]1)C(=O)N[C@@H](C)C(=O)N[C@@H](Cc1ccccc1)C(=O)N[C@@H](CCCCN)C(=O)N[C@@H](CCCNC(=N)N)C(=O)N[C@@H](CCCCN)C(=O)O (H-TAVQMAVFIHAFKRK-OH) | % | 33 |
